Consider the following compounds; for each one, report its % Conversion of bone-bound prodrug to parent drug.
Assay: Regeneration of drug from bone powder-bound prodrug
Type: in vitro ADME
Settings: 50% Rat Serum; 24 h incubation, 37° C.
# value in %; strip the unit string

INPUT: Provide one value: measured % Conversion of bone-bound prodrug to parent drug of `CO[C@H]1/C=C/O[C@@]2(C)Oc3c(C)c(O)c4c(=O)c(c5oc6cc(N7CCC(OC(=O)CCC(=O)NC(P(=O)(O)O)P(=O)(O)O)CC7)cc(O)c6nc-5c4c3C2=O)NC(=O)/C(C)=C\C=C\[C@H](C)[C@H](O)[C@@H](C)[C@@H](O)[C@@H](C)[C@H](OC(C)=O)[C@@H]1C`
OUTPUT: 0.24

INPUT: Please list % Conversion of bone-bound prodrug to parent drug recorded for the compound `CO[C@H]1/C=C/O[C@@]2(C)Oc3c(C)c(O)c4c(=O)c(c5oc6cc(N7CCN(CC(C)C)CC7)cc(O)c6nc-5c4c3C2=O)NC(=O)/C(C)=C\C=C\[C@H](C)[C@H](OC(=O)COC(=O)CCC(=O)NC(P(=O)(O)O)P(=O)(O)O)[C@@H](C)[C@@H](O)[C@@H](C)[C@H](OC(C)=O)[C@@H]1C`
OUTPUT: 0.12

INPUT: Indicate its recorded % Conversion of bone-bound prodrug to parent drug; the compound in question is `CCN(CC)CC.CCN(CC)CC.CO[C@H]1/C=C/O[C@@]2(C)Oc3c(C)c(O)c4c(c3C2=O)C2=NC3(CCN(CC(C)C)CC3)N(C(=O)OCOC(=O)CCCC(P(=O)(O)O)P(=O)(O)O)C2=C(NC(=O)/C(C)=C\C=C\[C@H](C)[C@H](O)[C@@H](C)[C@@H](O)[C@@H](C)[C@H](OC(C)=O)[C@@H]1C)C4=O`
OUTPUT: 2.68

INPUT: Give me measured % Conversion of bone-bound prodrug to parent drug, please, for this compound: `CO[C@H]1/C=C/O[C@@]2(C)Oc3c(C)c(O)c4c(=O)c(c5oc6cc(N7CCN(CCC(=O)c8ccc(OCCCC(P(=O)(O)O)P(=O)(O)O)cc8)CC7)cc(O)c6nc-5c4c3C2=O)NC(=O)/C(C)=C\C=C\[C@H](C)[C@H](O)[C@@H](C)[C@@H](O)[C@@H](C)[C@H](OC(C)=O)[C@@H]1C`
OUTPUT: 0.38

INPUT: Indicate its recorded % Conversion of bone-bound prodrug to parent drug; the compound in question is `CCN(CC)CC.CCN(CC)CC.CO[C@H]1/C=C/O[C@@]2(C)Oc3c(C)c(O)c4c(c3C2=O)C2=NC3(CCN(CC(C)C)CC3)NC2=C(NC(=O)/C(C)=C\C=C\[C@H](C)[C@H](OC(=O)CCC(=O)NCCCC(=O)NC(P(=O)(O)O)P(=O)(O)O)[C@@H](C)[C@@H](O)[C@@H](C)[C@H](OC(C)=O)[C@@H]1C)C4=O`
OUTPUT: 0.002

INPUT: Report % Conversion of bone-bound prodrug to parent drug, nothing else, for this compound: `CO[C@H]1/C=C/O[C@@]2(C)Oc3c(C)c(O)c4c(=O)c(c5oc6cc(N7CCN(CC(C)C)CC7)cc(O)c6nc-5c4c3C2=O)NC(=O)/C(C)=C\C=C\[C@H](C)[C@H](OC(=O)CCCOC(=O)CCC(=O)NC(P(=O)(O)O)P(=O)(O)O)[C@@H](C)[C@@H](O)[C@@H](C)[C@H](OC(C)=O)[C@@H]1C`
OUTPUT: 2.50

INPUT: Specify % Conversion of bone-bound prodrug to parent drug for `CO[C@H]1/C=C/O[C@@]2(C)Oc3c(C)c(O)c4c(c3C2=O)C2=NC3(CCN(CC(C)C)CC3)NC2=C(NC(=O)/C(C)=C\C=C\[C@H](C)[C@H](OC(=O)CNC(=O)CC(P(=O)(O)O)P(=O)(O)O)[C@@H](C)[C@@H](O)[C@@H](C)[C@H](OC(C)=O)[C@@H]1C)C4=O` and stop.
OUTPUT: 0.02

INPUT: For `CO[C@H]1/C=C/O[C@@]2(C)Oc3c(C)c(O)c4c(=O)c(c5oc6cc(N7CCN(CCOC(=O)CCC(=O)NC(P(=O)(O)O)P(=O)(O)O)CC7)cc(O)c6nc-5c4c3C2=O)NC(=O)/C(C)=C\C=C\[C@H](C)[C@H](O)[C@@H](C)[C@@H](O)[C@@H](C)[C@H](OC(C)=O)[C@@H]1C.N.N` , write its % Conversion of bone-bound prodrug to parent drug.
OUTPUT: 0.91
